Tested on: Streptococcus pneumoniae
Assay: Antibacterial activity against erythromycin-susceptible Streptococcus pneumoniae OC9132
Assay type: functional
Please respond with reported MIC for every item in the list.
API: value field is a number in µg/mL; no unit string.

Given the compound CC[C@H]1OC(=O)[C@H](C)C(=O)[C@H](C)[C@@H](O[C@@H]2O[C@H](C)C[C@H](N(C)C)[C@H]2O)[C@](C)(OC(=O)N(C)N(C)CCc2ccc(-c3cnccn3)cc2)C[C@@H](C)C(=O)[C@H](C)[C@H]2NC(=O)O[C@@]21C , what is its reported MIC? 0.06

May I ask what MIC has been recorded for CC[C@H]1OC(=O)[C@H](C)C(=O)[C@H](C)[C@@H](O[C@@H]2O[C@H](C)C[C@H](N(C)C)[C@H]2O)[C@](C)(OC(=O)NNCCc2ccc(-c3cnccn3)cc2)C[C@@H](C)C(=O)[C@H](C)[C@H]2NC(=O)O[C@@]21C ? 0.03

Need MIC, item CC[C@H]1OC(=O)[C@H](C)[C@@H](O[C@H]2C[C@@](C)(OC)[C@@H](O)[C@H](C)O2)[C@H](C)[C@@H](O[C@@H]2O[C@H](C)C[C@H](N(C)C)[C@H]2O)[C@](C)(O)C[C@@H](C)C(=O)[C@H](C)[C@@H](O)[C@]1(C)O 0.06

Data request, read-out MIC, for CC[C@H]1OC(=O)[C@H](C)C(=O)[C@H](C)[C@@H](O[C@@H]2O[C@H](C)C[C@H](N(C)C)[C@H]2O)[C@](C)(OC(=O)NN(C)CCc2ccc(-c3ncco3)cc2)C[C@@H](C)C(=O)[C@H](C)[C@H]2NC(=O)O[C@@]21C 0.03

###

I'd be grateful if you could share measured ED50 for these entries.
Tested on: Staphylococcus aureus
Test: Antibacterial activity against Staphylococcus aureus Smith infected in sc dosed Swiss Webster mouse septicemia model
Assay type: functional
Your answer is read as mg/kg, so omit the unit and give the number.

Would you kindly share the measured ED50 for CC[C@H]1OC(=O)[C@H](C)C(=O)[C@H](C)[C@@H](O[C@@H]2O[C@H](C)C[C@H](N(C)C)[C@H]2O)[C@](C)(OC(=O)NN(C)CCc2ccc(-c3ncccn3)s2)C[C@@H](C)C(=O)[C@H](C)[C@H]2NC(=O)O[C@@]21C ? 4.8

Which ED50 value belongs to CC[C@H]1OC(=O)[C@H](C)C(=O)[C@H](C)[C@@H](O[C@@H]2O[C@H](C)C[C@H](N(C)C)[C@H]2O)[C@](C)(OC(=O)NN(C)CCc2ccc(-c3ncccn3)cc2)C[C@@H](C)C(=O)[C@H](C)[C@H]2NC(=O)O[C@@]21C ? 3.3

Look up ED50 for this compound: CC[C@H]1OC(=O)[C@H](C)C(=O)[C@H](C)[C@@H](O[C@@H]2O[C@H](C)C[C@H](N(C)C)[C@H]2O)[C@](C)(OC(=O)NNCCc2cccc(-c3ncccn3)c2)C[C@@H](C)C(=O)[C@H](C)[C@H]2NC(=O)O[C@@]21C 4.3

###

Test system: Streptococcus pneumoniae
Experiment: Antibacterial activity against erythromycin-resistant Streptococcus pneumoniae OC4421 containing mef(A)
Assay type: functional
Hi there, I'd appreciate the recorded MIC for every entry that follows.

Field request: MIC | item: CC[C@H]1OC(=O)[C@H](C)C(=O)[C@H](C)[C@@H](O[C@@H]2O[C@H](C)C[C@H](N(C)C)[C@H]2O)[C@](C)(OC(=O)N(C)N(C)CCc2ccc(-c3cnccn3)cc2)C[C@@H](C)C(=O)[C@H](C)[C@H]2NC(=O)O[C@@]21C 0.5 µg/mL

Could you tell me which MIC is on file for CC[C@H]1OC(=O)[C@H](C)C(=O)[C@H](C)[C@@H](O[C@@H]2O[C@H](C)C[C@H](N(C)C)[C@H]2O)[C@](C)(OC(=O)NNCCc2ccc(-c3ncccn3)cc2)C[C@@H](C)C(=O)[C@H](C)[C@H]2NC(=O)O[C@@]21C ? 0.12 µg/mL

Would you kindly share the measured MIC for CC[C@H]1OC(=O)[C@H](C)C(=O)[C@H](C)[C@@H](O[C@@H]2O[C@H](C)C[C@H](N(C)C)[C@H]2O)[C@](C)(OC(=O)NNCCc2ccc(-c3cnccn3)cc2)C[C@@H](C)C(=O)[C@H](C)[C@H]2NC(=O)O[C@@]21C ? 0.25 µg/mL

Consider the molecule CC[C@H]1OC(=O)[C@H](C)C(=O)[C@H](C)[C@@H](O[C@@H]2O[C@H](C)C[C@H](N(C)C)[C@H]2O)[C@](C)(OC(=O)NN(C)CCc2ccc(-c3ncco3)cc2)C[C@@H](C)C(=O)[C@H](C)[C@H]2NC(=O)O[C@@]21C and give its measured MIC. 0.12 µg/mL

Given the molecule CC[C@H]1OC(=O)[C@H](C)C(=O)[C@H](C)[C@@H](O[C@@H]2O[C@H](C)C[C@H](N(C)C)[C@H]2O)[C@](C)(OC(=O)NN(C)CCc2ccc(-c3ncccn3)cc2)C[C@@H](C)C(=O)[C@H](C)[C@H]2NC(=O)O[C@@]21C , what is its reported MIC? 0.25 µg/mL

Would you kindly share the measured MIC for CC[C@H]1OC(=O)[C@H](C)C(=O)[C@H](C)[C@@H](O[C@@H]2O[C@H](C)C[C@H](N(C)C)[C@H]2O)[C@](C)(OC(=O)NN(C)CCc2ccc(-c3ncccn3)s2)C[C@@H](C)C(=O)[C@H](C)[C@H]2NC(=O)O[C@@]21C ? 0.12 µg/mL

# input molecule: CC[C@H]1OC(=O)[C@H](C)C(=O)[C@H](C)[C@@H](O[C@@H]2O[C@H](C)C[C@H](N(C)C)[C@H]2O)[C@](C)(OC(=O)NN(C)CCc2cnc3ccccc3c2)C[C@@H](C)C(=O)[C@H](C)[C@H]2NC(=O)O[C@@]21C ; wanted: its MIC 0.5 µg/mL

Quick one: MIC of CC[C@H]1OC(=O)[C@H](C)C(=O)[C@H](C)[C@@H](O[C@@H]2O[C@H](C)C[C@H](N(C)C)[C@H]2O)[C@](C)(OC)C[C@@H](C)C(=O)[C@H](C)[C@H]2N(CCCCn3cnc(-c4cccnc4)c3)C(=O)O[C@]12C ? 0.12 µg/mL
